test system: Saccharomyces cerevisiae; test: protein stability index of tFT-peptide fusion (C-terminal peptide) (PSI (0-1 scale)); higher = more stable (slower turnover); details: genetic background: das1 deletion; temperature: 30 C
Below is a list of entries, each paired with its recorded protein stability index value.
Just the number, please, no unit after it.

- EYHQEFLHKHVR [CWC15 C-terminal 12 aa]: 0.726
- VNFDIEEEQEGQ [JJJ3 C-terminal 12 aa]: 0.685
- IDDEDVVSLFAK [RBG2 C-terminal 12 aa]: 0.714
- NMEKFVRKCWKD [MKK1 C-terminal 12 aa]: 0.691
- LSSSDDNYGSLA [SNA2 C-terminal 12 aa]: 0.702

Pending sequence:
### Prompt Notebook entry, Saccharomyces cerevisiae assay: protein stability index of LQARLNTLKKQT [DID4 C-terminal 12 aa] = ?
### Response 0.681

###

system: Saccharomyces cerevisiae; assay: protein stability index of tFT-peptide fusion (C-terminal peptide) (PSI (0-1 scale)); higher = more stable (slower turnover); conditions: genetic background: wild type; temperature: 30 C
OUTCOME MEASURE: protein stability index
// no unit, no text: just the number

* PPPAWTPPPRTA | 0.716
* LPTLDCPLHRLF | 0.559
* CIRSRHRRQSKG | 0.67
* RTSKSCVEFTMG | 0.661
* DVYMWVVPNFTD | 0.729

### Prompt Which protein stability index is reported for this sequence? `FLRWRVWVVVGW`
### Response 0.234

### Prompt Then what about the sequence `PPRTSPRLLPPP` ?
### Response 0.686

###

Recorded protein stability index, one value per entry.
system: Saccharomyces cerevisiae; assay: protein stability index of tFT-peptide fusion (C-terminal peptide) (PSI (0-1 scale)); higher = more stable (slower turnover); settings: genetic background: cdc34-1; temperature: 37 C
The answer should be a number; do not append a unit.

Study these solved cases before continuing.
• PPPNSSTSPPCS = 0.657
• VFFLAFYFYRCF = 0.405
• LIAGTRRIPLFI = 0.593

### Prompt // returns reported protein stability index for input `ALRLVAFFWVPG`
### Response 0.482

### Prompt Quick one: `APASFRVLISAF`
### Response 0.021

### Prompt Quick one: `FCVLLFYCFFFF`
### Response 0.322

### Prompt What do we get for `SVSRIFRTFSCY` ?
### Response 0.627

### Prompt Lookup `FGLRVHPIVFIF`
### Response 0.289

###

tested on: Saccharomyces cerevisiae; assay: protein stability index of tFT-peptide fusion (C-terminal peptide) (PSI (0-1 scale)); higher = more stable (slower turnover); conditions: genetic background: wild type; temperature: 30 C
Entries annotated with measured protein stability index
Number only, please.

- ADMTKEFERESS [GLN1 C-terminal 12 aa]: 0.701
- SQAIPKKKKVLE [MEK1 C-terminal 12 aa]: 0.689
- LDKVGKKKGGKK [LRP1 C-terminal 12 aa]: 0.689
- LTINDLDVTFVI [YCR041W C-terminal 12 aa]: 0.71

### Prompt Entry SDIFSFLDETYE [PHO92 C-terminal 12 aa] : reported protein stability index = ?
### Response 0.718

###

tested on: Saccharomyces cerevisiae; experiment: protein stability index of tFT-peptide fusion (C-terminal peptide) (PSI (0-1 scale)); higher = more stable (slower turnover); conditions: genetic background: cdc53-1; temperature: 37 C
OUTCOME MEASURE: protein stability index
Respond with the number and no other words.

// solved cases for protein stability index follow
- ATAVMILCFRWC: 0.492
- RKRKKISEIIAI: 0.708
- RPHPLHIPRRLA: 0.685

Let's switch to this sequence now.
### Prompt Item `TYNVMFSPWRKA` has what recorded protein stability index?
### Response 0.706

Value source: the supplement of paper PMC10724198
